# Tested on: KM-20L2
# ASSAY REMARKS: NCI tumour cell line growth inhibition, 48 h
Active and inactive are the calls of the source. No stated cut-off is given here; in the data, active = GI50 up to about 1.1 µM and inactive = higher.
QUANTITY KIND: GI50

COMPOUND: NNC(=O)N/N=C1\CNC(=O)C(=O)C1c1nc2ccccc2s1 (stereo not drawn)
TEST TARGET: KM-20L2
GI50: > 100 µM (inactive)
--
COMPOUND: COc1ccc(NC(=O)C2C(=O)N(c3ccc(OC)cc3)C(=O)/C2=N/O)cc1 (stereo not drawn)
TEST TARGET: KM-20L2
GI50: 48 µM (inactive)

// query What does the data say about its GI50? Entry: O=C(NO)c1coc2ccccc2c1=O
// result > 100 µM (inactive)

// query Which GI50 is reported for this compound? Cc1ccc(NC(=O)c2cccc([N+](=O)[O-])c2O)c(C)c1
// result 21.5 µM (inactive)

// query I would be grateful if you could share the reported GI50 for c1ccc2c(c1)N=C(c1cccc3ccccc13)CC(c1ccc3c(c1)OCO3)S2 (stereo not drawn) .
// result > 100 µM (inactive)

// query // returns reported GI50 for input CC(=O)N1CCC2(C=Nc3ccccc32)CC1
// result > 100 µM (inactive)
